Would you mind telling me the reported normalized growth of each entry?
- Run Description: chemical genetic growth profiling, strain panel (AID 1159580);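 note: tested at 20 µM; growth read once vehicle control cultures reached saturation at 30 °C; 1 = growth at the plate median or of vehicle wells; lower values mean less growth of the strain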
- Measurement Conditions: S. cerevisiae deletion strains, growth OD, locus YLR268W, strain sec22, active compounds read low
The campaign covered roughly 5,500 compounds. About 2,000 (36%) were called active. Another 18% or so got no clear call; they are omitted. The list shows a part of the results.
One number for each entry.

Solved cases (3 shown):
• NC(N)=NC(=O)c1nc(Cl)c(N)nc1N = 1.05
• CC(C)c1c(O)ccc2c1CCC1[C@@](C)(CO)CCC[C@]21C (stereo not given in full) = 0.926
• C[C@@H]1CC[C@@]2(NC1)O[C@H]1C[C@H]3C4CC=C5C[C@@H](O)CC[C@]5(C)C4CC[C@]3(C)C1[C@@H]2C (stereo not given in full) = 0.0987

Dear colleague, could you send me normalized growth for each of the items below? Thanks.
1. CC(=O)OC(C)C[N+](C)(C)C (stereo not given)
2. COc1ccccc1/C=C\C(=O)O
3. CC(=O)Oc1ccc2c(c1C(C)C)CCC1C(C)(C)CCC[C@]21C (stereo not given in full)
4. CC1CC[C@]2(NC1)O[C@H]1CC3C4CC[C@H]5C[C@@H](O)CC[C@]5(C)C4CC[C@]3(C)[C@H]1[C@@H]2C (stereo not given in full)
5. C[C@@H]1CC[C@@]2(OC1)OC1CC3C4CC=C5C[C@@H](O)CC[C@]5(C)C4CC[C@]3(C)C1[C@@H]2C (stereo not given in full)

1. 1.01
2. 1.05
3. 1
4. 0.0945
5. 1.01

Dear colleague, could you send me normalized growth for each of the items below? Thanks.
1. NC(N)=NC(=O)c1nc(Cl)c(N2CCCCCC2)nc1N
2. NC(=NCCC[C@H](N)C(=O)O)N[N+](=O)[O-]

1. 1.02
2. 1

----------
- Run Description: chemical genetic growth profiling, strain panel (AID 1159580);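 note: tested at 20 µM; growth read once vehicle control cultures reached saturation at 30 °C; 1 = growth at the plate median or of vehicle wells; lower values mean less growth of the strain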
- Measurement Conditions: S. cerevisiae deletion strains, growth OD, locus YDR137W, strain rgp1
About 2,000 (36%) of roughly 5,500 compounds were called active. Another 18% or so got no clear call; they are omitted. No stated cut-off is given here; in the data, active means normalized growth mostly below about 0.91 (no sharp cut-off); inconclusive means no clear call, values can overlap the other calls; inactive means mostly above about 0.92. The list shows a part of the results.
Answer with one of the outcomes given here: TRUE for active, FALSE for inactive

Past entries and their recorded results:
• CN[C@@H]1[C@@H](O)C(OC2[C@@H](N)C[C@@H](N)[C@H](O[C@H]3O[C@H](C(C)O)[C@@H](O)[C@H](O)[C@H]3N)[C@H]2O)OC[C@]1(C)O (stereo partly drawn) = FALSE
• CNC(=O)Oc1cccc2c1OC(C)(C)O2 = FALSE
• CC(C1OC(C)(C)C(O)C1O)[C@@H]1CC[C@]2(C)C3=CCC4C(C)(C)C(=O)CC[C@]4(C)C3CC[C@@]12C (stereo partly drawn) = FALSE

Tell me the assay call for CC(CC(O)C1OC1(C)C)[C@@H]1CCC2(C)C3=CCC4C(C)(C)C(=O)CCC4(C)C3CC[C@@]12C (stereo partly drawn) please. TRUE

Tell me the assay call for CCN[C@@H]1C[C@H](N)[C@@H](O[C@H]2OC(CN)=CC[C@H]2N)[C@H](O)[C@H]1OC1OC[C@](C)(O)[C@H](NC)[C@H]1O (stereo partly drawn) please. FALSE

Tell me the assay call for O=c1ccc2cc(OC3OC(CO)C(O)C(O)C3O)c(O)cc2o1 (stereo not drawn) please. FALSE

Tell me the assay call for `C=C(C)[C@H]1COc2cc3oc(=O)ccc3cc2O1` please. TRUE

Tell me the assay call for CCCCCCC(C)OC(=O)COc1ccc(Cl)cc1Cl (stereo not drawn) please. FALSE
